Target: SCD5 (Homo sapiens, UniProt Q86SK9)
Construct: host or cells: Saccharomyces cerevisiae ole1Δ strain (W303 pdr1Δ pdr3Δ background), plasmid pRS316, TDH3 promoter
Sequence (Q86SK9 1-330): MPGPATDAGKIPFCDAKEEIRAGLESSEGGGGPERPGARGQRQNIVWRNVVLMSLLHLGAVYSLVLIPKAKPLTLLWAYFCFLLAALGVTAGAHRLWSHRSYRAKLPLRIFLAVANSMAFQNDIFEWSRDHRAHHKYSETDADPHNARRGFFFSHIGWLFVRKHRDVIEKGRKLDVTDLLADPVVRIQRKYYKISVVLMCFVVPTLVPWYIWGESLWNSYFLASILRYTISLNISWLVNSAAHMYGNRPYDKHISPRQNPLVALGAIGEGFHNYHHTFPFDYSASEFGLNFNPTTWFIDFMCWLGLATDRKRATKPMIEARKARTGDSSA
Test: Growth inhibition of yeast (ole1Δ) expressing human SCD5 as the sole desaturase
Assay type: cell-based
Conditions: yeast strain with SCD5 plasmid, OD600 growth read at 40 h; read-out: SCD5 IC50
Could you please report measured IC50 for the items listed next?
Give bare numbers, in nM.

QUERY: Name the recorded IC50 of the item "Cn1nc(NC(=O)N2CCC(F)(Cc3cc(F)c(F)c(Cl)c3)CC2)ccc1=O" in your answer.
RESULT: 920

QUERY: Name the recorded IC50 of the item "Cn1nc(-c2cnc(N3CCC(Cc4cc(F)cc(F)c4)CC3)o2)ccc1=O" in your answer.
RESULT: 140

QUERY: Name the recorded IC50 of the item "Cn1nc(NC(=O)N2CCC(Oc3ccc(C(F)(F)F)c(F)c3)CC2)ccc1=O" in your answer.
RESULT: 30

Please turn your attention to the following entry.
QUERY: Name the recorded IC50 of the item "O=C(Cc1ccc(=O)[nH]n1)N1CCC(Oc2cccc(Cl)c2)CC1" in your answer.
RESULT: 5350
